- system under test: human blood acetylcholinesterase (AChE) (Homo sapiens)
- Construct: Red blood cell lysate was used as a source of AChE and human plasma as a source of BChE
- Sequence (P22303 32-617 isoform P22303-2 limits assumed): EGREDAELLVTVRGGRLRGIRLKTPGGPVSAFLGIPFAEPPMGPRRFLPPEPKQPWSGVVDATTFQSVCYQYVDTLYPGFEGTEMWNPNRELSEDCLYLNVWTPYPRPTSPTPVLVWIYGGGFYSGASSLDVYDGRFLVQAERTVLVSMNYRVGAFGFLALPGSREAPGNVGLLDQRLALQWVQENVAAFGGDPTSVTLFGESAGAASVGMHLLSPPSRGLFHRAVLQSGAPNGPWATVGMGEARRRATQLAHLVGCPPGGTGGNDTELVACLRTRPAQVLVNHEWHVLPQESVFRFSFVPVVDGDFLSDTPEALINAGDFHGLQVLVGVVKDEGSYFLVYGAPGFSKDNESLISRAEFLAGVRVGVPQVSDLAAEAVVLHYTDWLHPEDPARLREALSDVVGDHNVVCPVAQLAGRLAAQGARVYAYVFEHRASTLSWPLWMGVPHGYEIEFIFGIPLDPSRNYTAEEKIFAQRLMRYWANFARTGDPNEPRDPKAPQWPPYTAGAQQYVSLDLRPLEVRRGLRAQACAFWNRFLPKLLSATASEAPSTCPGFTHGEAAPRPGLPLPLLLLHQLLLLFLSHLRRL
- method notes: AChE inhibition, modified Ellman's method, red blood cell lysate
recorded metric: pIC50
Conceptually, pIC50 converts a concentration in mol/L into minus its log10.

Consider the worked cases shown below.
COc1cc2c(cc1O)[C@@H]1Cc3cc(OC)c(OC)cc3[C@H](C2)N1C | 3.69
COc1cc2c(cc1OC)[C@@H]1Cc3ccc(OC)c(O)c3[C@H](C2)N1C | 3.65
COc1ccc2c(c1OC)CN(C)CCc1cc3c(cc1C(=O)C2)OCO3 | 3.60

Next, consider the following compound.
Request: Fill in pIC50 for "COc1cc2c(cc1O)[C@@H]1Cc3ccc(OC)c(O)c3[C@H](C2)N1C" tested with human blood acetylcholinesterase (AChE) (Homo sapiens).
Response: 4.21

Sourced from paper PMC6152004
